Target: High affinity cGMP-specific 3',5'-cyclic phosphodiesterase 9A (Homo sapiens, UniProt O76083)
Sequence (O76083 whole entry): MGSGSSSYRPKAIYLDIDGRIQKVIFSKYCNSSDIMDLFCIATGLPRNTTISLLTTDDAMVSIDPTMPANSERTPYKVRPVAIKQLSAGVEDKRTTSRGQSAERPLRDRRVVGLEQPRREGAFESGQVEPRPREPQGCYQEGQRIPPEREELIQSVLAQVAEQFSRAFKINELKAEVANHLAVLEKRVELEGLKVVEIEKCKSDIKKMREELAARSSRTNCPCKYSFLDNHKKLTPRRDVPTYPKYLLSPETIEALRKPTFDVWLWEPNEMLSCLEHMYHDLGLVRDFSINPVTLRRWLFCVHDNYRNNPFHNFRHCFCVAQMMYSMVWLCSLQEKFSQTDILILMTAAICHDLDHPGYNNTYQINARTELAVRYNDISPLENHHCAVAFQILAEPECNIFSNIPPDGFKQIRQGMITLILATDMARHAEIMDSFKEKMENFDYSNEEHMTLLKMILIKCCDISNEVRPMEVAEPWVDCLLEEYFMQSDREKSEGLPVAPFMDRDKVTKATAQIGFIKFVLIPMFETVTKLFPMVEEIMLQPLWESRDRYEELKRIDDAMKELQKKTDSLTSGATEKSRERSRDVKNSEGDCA
readout type: IC50

// returns reported IC50 for input CC(C)(O)CCc1ccc(OCc2cc(-c3cccc(OC(F)F)c3)c3ncccc3c2)cc1 ≥ 55 µM

* * *

In what follows, each item is paired with its pIC50 for UniProtKB P27815.
Sequence (P27815 whole entry): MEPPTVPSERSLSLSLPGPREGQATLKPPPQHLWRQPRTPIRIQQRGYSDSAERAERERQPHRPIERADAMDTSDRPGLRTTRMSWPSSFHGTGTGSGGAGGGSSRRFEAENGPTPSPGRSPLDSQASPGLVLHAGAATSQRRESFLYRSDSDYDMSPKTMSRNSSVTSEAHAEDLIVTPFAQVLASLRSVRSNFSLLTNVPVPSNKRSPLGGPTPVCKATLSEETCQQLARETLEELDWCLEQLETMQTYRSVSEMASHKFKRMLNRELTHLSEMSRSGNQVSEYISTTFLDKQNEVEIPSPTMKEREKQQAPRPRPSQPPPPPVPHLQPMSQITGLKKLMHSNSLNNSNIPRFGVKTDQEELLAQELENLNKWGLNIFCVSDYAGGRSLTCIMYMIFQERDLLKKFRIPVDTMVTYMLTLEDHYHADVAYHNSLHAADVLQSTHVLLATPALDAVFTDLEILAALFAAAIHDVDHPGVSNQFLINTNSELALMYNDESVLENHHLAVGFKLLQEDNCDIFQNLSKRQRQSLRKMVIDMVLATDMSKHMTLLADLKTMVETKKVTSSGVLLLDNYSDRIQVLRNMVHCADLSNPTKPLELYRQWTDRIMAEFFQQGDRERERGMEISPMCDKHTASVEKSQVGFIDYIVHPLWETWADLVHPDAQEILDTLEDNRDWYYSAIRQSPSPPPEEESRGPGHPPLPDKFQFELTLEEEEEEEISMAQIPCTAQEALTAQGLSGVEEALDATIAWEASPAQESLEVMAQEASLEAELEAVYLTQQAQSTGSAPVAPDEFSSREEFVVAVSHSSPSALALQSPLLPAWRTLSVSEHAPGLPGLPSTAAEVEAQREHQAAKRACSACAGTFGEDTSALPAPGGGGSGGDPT
Recall that pIC50 is obtained by taking minus log10 of the concentration measured in molar.

// returns reported pIC50 for input N#CCCc1ccc(OCc2cc(-c3cccc(F)c3)c3ncccc3c2)cc1 6.65

Please do the same for N#CCCc1ccc(OCc2cc(-c3cccc(OC(F)(F)F)c3)c3ncccc3c2)cc1 as well. 6.46

Please do the same for COC(=O)Cc1ccc(OCc2cc(-c3cccc(OC)c3)c3ncccc3c2)cc1 as well. 8.34

Please do the same for CC(C)(O)CCc1ccc(OCc2cc(-c3cccc(OC(F)F)c3)c3ncccc3c2)cc1 as well. 7.20

Please do the same for N#CCCc1ccc(OCc2cc(-c3cccc(OC(F)F)c3)c3ncccc3c2)cc1 as well. 7.22

Please do the same for Cc1cccc(-c2cc(COc3ccc(CCC#N)cc3)cc3cccnc23)c1 as well. 6.09

Please do the same for CS(=O)(=O)c1ccc(OCc2cc(-c3cccc(OC(F)F)c3)c3ncccc3c2)cc1 as well. 7.89

Please do the same for COc1cccc(-c2cc(COc3ccc(CCC#N)cc3)cc3cccnc23)c1 as well. 6.91

Please do the same for O=C(O)Cc1ccc(OCc2cc(-c3cccc(OC(F)F)c3)c3ncccc3c2)cc1 as well. 8.24

Values from ChEMBL document CHEMBL1221357
